TEST SYSTEM: ATP-dependent translocase ABCB1 (Homo sapiens, UniProt P08183)
Sequence (P08183 whole entry): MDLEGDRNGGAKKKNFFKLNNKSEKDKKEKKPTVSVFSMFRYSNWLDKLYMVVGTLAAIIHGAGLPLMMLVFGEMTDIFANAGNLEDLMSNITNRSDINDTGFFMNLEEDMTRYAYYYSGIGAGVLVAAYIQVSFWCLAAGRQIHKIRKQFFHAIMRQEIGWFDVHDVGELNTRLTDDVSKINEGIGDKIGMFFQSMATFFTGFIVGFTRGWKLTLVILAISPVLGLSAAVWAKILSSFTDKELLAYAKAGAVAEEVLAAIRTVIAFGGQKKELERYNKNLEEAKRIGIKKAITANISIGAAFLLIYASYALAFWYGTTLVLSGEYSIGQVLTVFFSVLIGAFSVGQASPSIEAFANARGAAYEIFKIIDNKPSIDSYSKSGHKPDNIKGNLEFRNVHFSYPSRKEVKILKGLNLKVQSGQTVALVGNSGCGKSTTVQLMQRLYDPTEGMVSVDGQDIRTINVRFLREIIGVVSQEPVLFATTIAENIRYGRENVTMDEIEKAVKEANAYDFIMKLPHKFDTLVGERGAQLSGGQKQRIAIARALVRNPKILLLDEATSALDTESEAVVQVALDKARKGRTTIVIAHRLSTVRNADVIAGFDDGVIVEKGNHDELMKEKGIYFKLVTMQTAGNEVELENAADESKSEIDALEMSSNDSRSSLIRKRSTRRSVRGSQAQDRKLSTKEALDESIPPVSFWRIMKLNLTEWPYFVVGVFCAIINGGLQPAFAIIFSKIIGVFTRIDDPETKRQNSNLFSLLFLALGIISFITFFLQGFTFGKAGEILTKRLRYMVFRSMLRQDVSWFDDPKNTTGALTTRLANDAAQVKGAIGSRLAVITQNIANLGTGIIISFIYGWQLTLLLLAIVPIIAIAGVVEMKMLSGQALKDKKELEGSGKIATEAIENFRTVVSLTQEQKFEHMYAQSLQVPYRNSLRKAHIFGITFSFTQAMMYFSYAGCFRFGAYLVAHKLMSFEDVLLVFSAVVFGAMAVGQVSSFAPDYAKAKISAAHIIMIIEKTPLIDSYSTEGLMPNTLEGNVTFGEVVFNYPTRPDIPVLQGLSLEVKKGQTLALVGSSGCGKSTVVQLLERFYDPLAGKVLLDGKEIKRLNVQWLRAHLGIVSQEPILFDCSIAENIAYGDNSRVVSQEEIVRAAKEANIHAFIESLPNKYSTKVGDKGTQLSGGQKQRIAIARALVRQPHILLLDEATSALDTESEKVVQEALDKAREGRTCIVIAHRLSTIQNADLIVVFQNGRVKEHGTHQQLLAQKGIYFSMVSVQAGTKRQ
pKd: −log10 of the molar value.
READOUT NAME: pKd

[
  {
    "QUERY SMILES": "COc1cc(-c2ccc(CNC(=O)c3cn(C)c4ccccc34)nc2)cc(OC)c1OC",
    "READOUT NUMBER": 6.10
  }
]
